Target: HCV NS3 helicase NS3h_1b(con1) (Hepatitis C virus genotype 1b, UniProt Q9WMX2)
Construct: truncated C-terminally His-tagged NS3 proteins lacking the N-terminal protease, called NS3h; His-tag (C); made in house
Sequence (Q9WMX2 1192-1657): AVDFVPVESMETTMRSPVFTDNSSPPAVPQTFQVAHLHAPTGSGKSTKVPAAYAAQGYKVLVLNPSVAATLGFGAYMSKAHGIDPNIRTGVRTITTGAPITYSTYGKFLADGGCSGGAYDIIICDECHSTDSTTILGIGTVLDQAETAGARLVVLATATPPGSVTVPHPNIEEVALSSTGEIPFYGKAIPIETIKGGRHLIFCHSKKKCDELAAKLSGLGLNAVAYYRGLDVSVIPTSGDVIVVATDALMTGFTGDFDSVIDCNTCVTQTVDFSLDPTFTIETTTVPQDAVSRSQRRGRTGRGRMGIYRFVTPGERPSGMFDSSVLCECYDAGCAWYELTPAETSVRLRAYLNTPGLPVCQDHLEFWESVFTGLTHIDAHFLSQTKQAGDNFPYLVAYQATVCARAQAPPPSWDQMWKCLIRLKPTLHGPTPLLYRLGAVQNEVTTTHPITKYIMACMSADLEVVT
Assay: MBHA screen of NCI mechanistic set library at 20 μM (percent inhibition, compound interference)
Format: biochemical
Conditions: compounds at 20 μM, MBHA with a DNA substrate; calculated from Equation 1
Description: All molecular beacon-based helicase assays (MBHAs) were performed according to known methods (Belon & Frick (2008) supra; Belon & Frick (2009) supra). […] Fluorescence was read before ATP (F0) addition and 30 minutes after ATP was added to 1 mM (F30) using a Tecan Infinite M200 fluorescence microplate reader with excitation and emission wavelengths set to 643 and 670 nm, respectively. […]
MEASURED_PROPERTY: Inh. (%) (Inhibition)
Field: value (include unit after the number)

- COMPOUND: "C[CH2][Ge]([CH2]C)([CH2]C)[O]C(=O)CCC(=O)[O][Ge]([CH2]C)([CH2]C)[CH2]C"
  TESTED_ON: "HCV NS3 helicase NS3h_1b(con1) (Hepatitis C virus genotype 1b, UniProt Q9WMX2)"
  Inh. (%) (Inhibition): "−3.1%"
- COMPOUND: "O=C(/C=C/c1c(O)ccc2ccccc12)c1cccc(O)c1"
  TESTED_ON: "HCV NS3 helicase NS3h_1b(con1) (Hepatitis C virus genotype 1b, UniProt Q9WMX2)"
  Inh. (%) (Inhibition): "8.8%"
- COMPOUND: "O=C1C=C(N2CCNCC2)C(=O)c2c(O)ccc(O)c21"
  TESTED_ON: "HCV NS3 helicase NS3h_1b(con1) (Hepatitis C virus genotype 1b, UniProt Q9WMX2)"
  Inh. (%) (Inhibition): "−5.5%"

[ask] I have this compound here, "COc1cc(-c2cc(=O)c3c(OC)c(OC)c(OC)c(OC)c3o2)cc(OC)c1OC" , and I need its recorded Inh. (%) (Inhibition).
[reply] −27.4%

[ask] Now consider "Cc1cc([N+](=O)[O-])ccc1Nc1cccc(Cl)c1C" .
[reply] −37.8%

* * *

Tested on: MBHA DNA substrate
Experiment: Modified FID assay, SYBR Green I
Format: binding
Conditions: SYBR Green I-FID; average (±SD) percent bound at 100 μM
MEASURED_PROPERTY: DNA binding (%)
Note: unit % is implicit; provide only the numeric part.

Sample answers from the record:
- MOLECULE: "Cc1ccc2nc(-c3ccc4nc(-c5ccc(NC(=O)c6cc(F)ccc6C(F)(F)F)cc5)sc4c3)sc2c1S(=O)(=O)O [Compound 26]"
  DNA binding (%): 35
- MOLECULE: "Cc1ccc2nc(-c3ccc4nc(-c5ccc(NC(=O)c6cccc(C(F)(F)F)c6)cc5)sc4c3)sc2c1S(=O)(=O)O [Compound 20]"
  DNA binding (%): 46
- MOLECULE: "Cc1ccc2nc(-c3ccc4nc(-c5ccc(NC(=O)c6ccccc6)cc5)sc4c3)sc2c1S(=O)(=O)O [Compound 5]"
  DNA binding (%): 31
- MOLECULE: "Cc1ccc2nc(-c3ccc4nc(-c5ccc(NC(=O)c6ccc(N(C)C)cc6)cc5)sc4c3)sc2c1S(=O)(=O)O [Compound 14]"
  DNA binding (%): 44
- MOLECULE: "Cc1ccc2nc(-c3ccc4nc(-c5ccc(NC(=O)c6c(F)cccc6C(F)(F)F)cc5)sc4c3)sc2c1S(=O)(=O)O [Compound 21]"
  DNA binding (%): 66
- MOLECULE: "COC(=O)c1ccc(C(=O)Nc2ccc(-c3nc4ccc(-c5nc6ccc(C)c(S(=O)(=O)O)c6s5)cc4s3)cc2)cc1 [Compound 9]"
  DNA binding (%): 28
- MOLECULE: "Cc1ccc2nc(-c3ccc4nc(-c5ccc(NC(=O)c6cccc(C(F)(F)F)c6F)cc5)sc4c3)sc2c1S(=O)(=O)O [Compound 22]"
  DNA binding (%): 49
- MOLECULE: "Cc1ccc2nc(-c3ccc4nc(-c5ccc(NC(=O)c6cccnc6)cc5)sc4c3)sc2c1S(=O)(=O)O [Compound 31]"
  DNA binding (%): 15

[ask] I have this molecule here, Cc1ccc2nc(-c3ccc4nc(-c5ccc(NC(=O)c6ccncc6)cc5)sc4c3)sc2c1S(=O)(=O)O [Compound 32] , and I need its recorded DNA binding (%).
[reply] 19

[ask] Now consider Cc1ccc2nc(-c3ccc4nc(-c5ccc(NC(=O)c6ccc7ccccc7c6)cc5)sc4c3)sc2c1S(=O)(=O)O [Compound 33] .
[reply] 64

[ask] Now consider Cc1ccc2nc(-c3ccc4nc(-c5ccc(NC(=O)c6ccc(C(C)(C)C)cc6)cc5)sc4c3)sc2c1S(=O)(=O)O [Compound 13] .
[reply] 72

[ask] Now consider Cc1ccc2nc(-c3ccc4nc(-c5ccc(NC(=O)c6cc(C(F)(F)F)cc(C(F)(F)F)c6)cc5)sc4c3)sc2c1S(=O)(=O)O [Compound 24] .
[reply] 43

* * *

Biological target: HCV NS3 helicase NS3h_1b(con1) (Hepatitis C virus genotype 1b)
Construct: truncated C-terminally His-tagged NS3 proteins lacking the N-terminal protease, called NS3h; His-tag (C); made in house
Assay: MBHA screen of NCI mechanistic set library at 20 μM (percent inhibition, compound interference)
Format: biochemical
Details: compounds at 20 μM, MBHA with DNA substrate; assay interference calculated with Equation 2
Entries and their measured Int.* (Ratio) (Interference) follow.
Note: unit Ratio is implicit; provide only the numeric part.

- MOLECULE: "CSc1ccc(NC(=O)CCl)cc1"
  Int.* (Ratio) (Interference): 1.00
- MOLECULE: "COc1cc2c(c(OC)c1OC)-c1c(cc3c(c1OC)OCO3)CC(C)C(C)(O)C2OC(=O)c1ccccc1 (stereo not drawn)"
  Int.* (Ratio) (Interference): 0.92
- MOLECULE: "COc1ccc(/C=C2/C(=O)N(C(=O)c3ccccc3O)N=C2C)cc1"
  Int.* (Ratio) (Interference): 0.87
- MOLECULE: "O=C1Oc2ccccc2C1C/C(=N\\Nc1ccccc1)c1ccccc1O (stereo not drawn)"
  Int.* (Ratio) (Interference): 0.91
- MOLECULE: "Nc1nc(SCCc2ccccc2)c2[nH]cnc2n1"
  Int.* (Ratio) (Interference): 0.93

[ask] I have this molecule here, CC1OC(CC(=O)O)CC2=C1C(=O)c1c(O)cccc1C2=O (stereo not drawn) , and I need its recorded Int.* (Ratio) (Interference).
[reply] 1.01

[ask] Now consider "COC(=O)c1ccc(=O)c2nc3/c(=C/O)c(O)cc(=O)c3[nH]c12" .
[reply] 0.93

[ask] Now consider "Cc1cc2nc(C=C(C(F)(F)F)C(F)(F)F)oc2cc1C" .
[reply] 0.95

[ask] Now consider CC(C)(O)C=CC(=O)C(C)(O)C1C(O)CC2(C)C3CC=C4C(C=C(O)C(=O)C4(C)C)C3(C)C(=O)CC12C (stereo not drawn) .
[reply] 0.90

* * *

Assay: Aqueous solubility (direct UV kinetic)
Format: physicochemical
Details: aqueous with cosolvent or surfactant or cyclodextrin, kinetic from dmso stock; mock assay matrix (MOPS, TWEEN 20, 5% DMSO) at pH 6.5; read-out: solubility
Entries and their measured solubility follow.
Note: unit µM is implicit; provide only the numeric part.

- COMPOUND: "Cc1ccc2nc(-c3ccc4nc(-c5ccc(NC(=O)c6cc(C(F)(F)F)cc(C(F)(F)F)c6)cc5)sc4c3)sc2c1S(=O)(=O)O [Compound 24]"
  solubility, µM: 180
- COMPOUND: "Cc1ccc2nc(-c3ccc4nc(-c5ccc(NC(=O)c6ccc7ccccc7c6)cc5)sc4c3)sc2c1S(=O)(=O)O [Compound 33]"
  solubility, µM: 3.7
- COMPOUND: "Cc1ccc2nc(-c3ccc4nc(-c5ccc(NC(=O)c6ccc(F)cc6)cc5)sc4c3)sc2c1S(=O)(=O)O.N [Compound 7]"
  solubility, µM: 129
- COMPOUND: "Cc1ccc2nc(-c3ccc4nc(-c5ccc(NC(=O)c6cccc(Cl)c6)cc5)sc4c3)sc2c1S(=O)(=O)O [Compound 17]"
  solubility, µM: 29.2

Consider now this further compound.
[ask] I have this compound here, Cc1ccc2nc(-c3ccc4nc(-c5ccc(NC(=O)c6ccc(Cl)c(Cl)c6)cc5)sc4c3)sc2c1S(=O)(=O)O [Compound 18] , and I need its recorded solubility.
[reply] 2.6

* * *

Biological target: HCV NS3 helicase NS3h_1b(con1) (Hepatitis C virus genotype 1b, UniProt Q9WMX2)
Construct: truncated C-terminally His-tagged NS3 proteins lacking the N-terminal protease, called NS3h; His-tag (C); made in house
Assay: MBHA screen of NCI mechanistic set library at 20 μM (percent inhibition, compound interference)
Format: biochemical
Settings: compounds at 20 μM; assay interference calculated with Equation 2 (fluorescence vs DMSO-only controls before ATP)
Protocol: All molecular beacon-based helicase assays (MBHAs) were performed according to known methods (Belon & Frick (2008) supra; Belon & Frick (2009) supra). […] Fluorescence was read before ATP (F0) addition and 30 minutes after ATP was added to 1 mM (F30) using a Tecan Infinite M200 fluorescence microplate reader with excitation and emission wavelengths set to 643 and 670 nm, respectively. […]
Everything with Int.* (Ratio) (Interference) lower than 0.9 Ratio is 0.0; everything else, including exactly 0.9 Ratio, is 1.0.

Reference set (5 entries):
- COMPOUND: "Nc1nc(-c2cccs2)cs1 [Compound 54297]"
  TESTED_ON: "HCV NS3 helicase NS3h_1b(con1) (Hepatitis C virus genotype 1b, UniProt Q9WMX2)"
  ASSIGNED_CATEGORY: 1.0
- COMPOUND: "Oc1ccc(/C=N/NC(=S)Nc2cccnc2)nc1 [Compound 185065]"
  TESTED_ON: "HCV NS3 helicase NS3h_1b(con1) (Hepatitis C virus genotype 1b, UniProt Q9WMX2)"
  ASSIGNED_CATEGORY: 1.0
- COMPOUND: "N=N/C(=C\\c1c(O)[nH]c2ccccc12)c1ccccc1 [Compound 175274]"
  TESTED_ON: "HCV NS3 helicase NS3h_1b(con1) (Hepatitis C virus genotype 1b, UniProt Q9WMX2)"
  ASSIGNED_CATEGORY: 1.0
- COMPOUND: "CCOC(=O)CCc1c(C)c2c(O)cc(O)cc2oc1=O [Compound 622616]"
  TESTED_ON: "HCV NS3 helicase NS3h_1b(con1) (Hepatitis C virus genotype 1b, UniProt Q9WMX2)"
  ASSIGNED_CATEGORY: 1.0
- COMPOUND: "O=C(OCC12CC3CC(CC(C3)C1)C2)c1ccc(NCc2cc(O)ccc2O)cc1 [Compound 689857]"
  TESTED_ON: "HCV NS3 helicase NS3h_1b(con1) (Hepatitis C virus genotype 1b, UniProt Q9WMX2)"
  ASSIGNED_CATEGORY: 0.0

[ask] I'd appreciate it if you could say whether C[C@H]1CCC/C=C/[C@@H]2C[C@H](O)C[C@H]2[C@H](O)/C=C/C(=O)O1 [Compound 89671] has Int.* (Ratio) (Interference) at least equal to 0.9 Ratio.
[reply] 1.0

[ask] Now consider Cc1cccc(Cl)c1NC(=O)/C=C/c1ccccc1 [Compound 191393] .
[reply] 1.0

[ask] Now consider CC(=O)Oc1ccc(C(c2ccc(OC(C)=O)cc2)c2ccccn2)cc1 [Compound 614826] .
[reply] 1.0

[ask] Now consider CC[C@]1(O)C[C@@H]2CN(CCc3c([nH]c4ccccc34)[C@@](C(=O)OC)(c3cc4c(cc3OC)N(C)[C@H]3[C@@](O)(C(=O)OC)[C@H](OC(C)=O)[C@]5(CC)C=CCN6CC[C@]43[C@@H]65)C2)C1.O=S(=O)(O)O [Compound 49842] .
[reply] 1.0

[ask] Now consider O=C([O-])c1cc(I)cc(I)c1O.O=C([O-])c1cc(I)cc(I)c1O.[Mn+2] [Compound 619907] .
[reply] 0.0

[ask] Now consider Cc1ccc(Nc2nc(C)c(C(/C=C/c3ccc(/C=C/C(=N\NC(=O)C[n+]4ccccc4)c4sc(Nc5ccc(C)cc5[N+](=O)[O-])nc4C)cc3)=N/NC(=O)C[n+]3ccccc3)s2)c([N+](=O)[O-])c1.Cl [Compound 640342] .
[reply] 1.0

[ask] Now consider CCNC(=O)OCc1c(COC(=O)NCC)c(-c2ccc(Cl)c(Cl)c2)n2c1CCC2 [Compound 267700] .
[reply] 1.0
